TARGET_UNDER_TEST: anti-CD28 scFv (VH - linker 1 - VL) (biotinylated (site not stated))
Sequence (scFv, as listed by the source): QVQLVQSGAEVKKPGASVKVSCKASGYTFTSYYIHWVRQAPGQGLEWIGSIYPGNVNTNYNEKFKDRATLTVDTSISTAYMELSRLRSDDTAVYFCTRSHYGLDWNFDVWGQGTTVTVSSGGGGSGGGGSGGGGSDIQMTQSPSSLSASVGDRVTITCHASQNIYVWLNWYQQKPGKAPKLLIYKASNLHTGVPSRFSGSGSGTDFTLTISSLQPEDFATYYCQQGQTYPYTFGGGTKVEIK
PROTOCOL: same phage ELISA, wells pre-incubated with soluble CD28 (competitor)
Where no end group is shown, it is not given here.
MEASUREMENT_NAME: CD28 scFv signal in presence of CD28

BINDER	MEASURED_NUMBER
MDWCPRDMWDECFA (peptide, not shown: large carriers, cysteine pairing not given here; also: peptide displayed as fusion to phage pIII, Clonal phage supernatant) [Phage-30]	0.25
MDWCPRFMWDECFN (peptide, not shown: large carriers, Clonal phage supernatant) [Phage-33]	0.256
MDWCPIYLWSECFN (peptide, not shown: large carriers, Clonal phage supernatant) [Phage-21]	0.513
MDWCPRDLWHLCFS (peptide, not shown: large carriers, cysteine pairing not given here; also: displayed on phage as fusion to pIII, linker and pIII sequence not given here, Clonal phage supernatant) [Phage-27]	0.29
MDWCPRDLWDLCFA (peptide, not shown: large carriers, cysteine pairing not given here; also: phage-displayed pIII fusion, pIII and linker not given here, Clonal phage supernatant) [Phage-25]	0.219
MDWCPLYLWNECFN (peptide, not shown: large carriers, Clonal phage supernatant) [Phage-24]	0.247
MDWCPIDLWNECFF (peptide, not shown: large carriers, cysteine pairing not given here; also: phage-displayed pIII fusion, pIII and linker not given here, Clonal phage supernatant) [Phage-19]	0.187
MDWCPRSLWHECFA (peptide, not shown: large carriers, cysteine pairing not given here; also: fused to phage pIII, linker not given here, Clonal phage supernatant) [Phage-35]	0.255
MDWCPRDMWSVCFS (peptide, not shown: large carriers, cysteine pairing not given here; also: fused to phage pIII, linker not given here, Clonal phage supernatant; the listing entry decides) [Phage-32]	0.207
MDWCPRERWVDCFF (peptide, not shown: large carriers, cysteine pairing not given here; also: displayed on phage as fusion to pIII, linker not given here, Clonal phage supernatant) [Phage-9]	0.489
